- measurement_notes: Plasma pharmacokinetics of MGX and FMGX (noncompartmental analysis), phase 1 fixed-sequence DDI study with itraconazole or rifampin
- Format: in vivo, human
- measurement_setup: human, in vivo; FMGX only 1000 mg BID IV, D1; Cohort 2, n = 17; median (range)
assay_metric: Tmax (h)
Use h as the unit, but write only the number.

Q) Name the reported Tmax value associated with the molecule Nc1ncccc1-c1cc(Cc2ccc(COc3ccccn3)cc2)no1 [MGX, manogepix]
A) 12

###

- measurement_notes: Plasma pharmacokinetics of MGX and FMGX (noncompartmental analysis), phase 1 fixed-sequence DDI study with itraconazole or rifampin
- Assay type: in vivo, human
- measurement_setup: human, in vivo, iv, 500 mg, FMGX only 500 mg BID IV, D1; Cohort 1, n = 16; geometric mean (geometric %CV); read-out: MGX Cmax
assay_metric: Cmax (ng/mL)
Give the value, in units of ng/mL, as a plain number.

Q) Look at this compound and give its reported Cmax. Nc1ncccc1-c1cc(Cc2ccc(COc3ccccn3)cc2)no1 [MGX, manogepix]
A) 6940

###

- measurement_notes: Plasma pharmacokinetics of MGX and FMGX (noncompartmental analysis), phase 1 fixed-sequence DDI study with itraconazole or rifampin
- Assay type: in vivo, human
- measurement_setup: human, in vivo, FMGX 1,000 mg BID IV D24 + RIF 600 mg QD PO D15–33; Cohort 2, n = 17; read-out: MGX AUC(0-t), least squares geometric mean
assay_metric: AUC(0-t) (µg·h/mL)
Give just the numeric value; µg·h/mL need not be written.

Q) Look at this molecule and give its reported AUC(0-t). Nc1ncccc1-c1cc(Cc2ccc(COc3ccccn3)cc2)no1 [MGX, manogepix]
A) 436

###

- measurement_notes: Plasma pharmacokinetics of MGX and FMGX (noncompartmental analysis), phase 1 fixed-sequence DDI study with itraconazole or rifampin
- Format: in vivo, human
- measurement_setup: human, in vivo, FMGX 500 mg BID IV D18 + ITR 200 mg QD PO D15-30; Cohort 1, n = 16; geometric mean (geometric %CV); read-out: MGX Vz
assay_metric: Vd (L)
Respond with the bare value in L.

Q) Endpoint output: Vd of Nc1ncccc1-c1cc(Cc2ccc(COc3ccccn3)cc2)no1 [MGX, manogepix] . Value?
A) 195

###

- measurement_notes: Plasma pharmacokinetics of MGX and FMGX (noncompartmental analysis), phase 1 fixed-sequence DDI study with itraconazole or rifampin
- Type: in vivo, human
- measurement_setup: human, in vivo, iv, 1000 mg, FMGX only 1000 mg BID IV, D1; Cohort 2, n = 17; geometric mean (geometric %CV); read-out: MGX AUC(0-t)
assay_metric: AUC(0-t)
Please format your answer as a value with the unit trailing.

Q) Name the recorded AUC(0-t) for Nc1ncccc1-c1cc(Cc2ccc(COc3ccccn3)cc2)no1 [MGX, manogepix] .
A) 772 µg·h/mL

###

- measurement_notes: Plasma pharmacokinetics of MGX and FMGX (noncompartmental analysis), phase 1 fixed-sequence DDI study with itraconazole or rifampin
- Format: in vivo, human
- measurement_setup: human, in vivo, FMGX 1,000 mg BID IV D24 + RIF 600 mg QD PO D15–33; Cohort 2, n = 17; geometric mean (geometric %CV); read-out: MGX Cmax
assay_metric: Cmax
Just the number plus its unit, please.

Q) Need Cmax, item Nc1ncccc1-c1cc(Cc2ccc(COc3ccccn3)cc2)no1 [MGX, manogepix]
A) 12100 ng/mL

###

- measurement_notes: Plasma pharmacokinetics of MGX and FMGX (noncompartmental analysis), phase 1 fixed-sequence DDI study with itraconazole or rifampin
- Format: in vivo, human
- measurement_setup: human, in vivo, FMGX 500 mg BID IV D18 + ITR 200 mg QD PO D15-30; Cohort 1, n = 16; geometric mean (geometric %CV); read-out: MGX AUC(0-inf)
assay_metric: AUC(0-inf) (µg·h/mL)
Write down the numeric answer in µg·h/mL and omit the unit.

Q) Name the recorded AUC(0-inf) for Nc1ncccc1-c1cc(Cc2ccc(COc3ccccn3)cc2)no1 [MGX, manogepix] .
A) 458

###

- measurement_notes: Plasma pharmacokinetics of MGX and FMGX (noncompartmental analysis), phase 1 fixed-sequence DDI study with itraconazole or rifampin
- Type: in vivo, human
- measurement_setup: human, in vivo, iv, 1000 mg, FMGX only 1,000 mg BID IV, D1; Cohort 2, n = 17; read-out: MGX Cmax, least squares geometric mean
assay_metric: Cmax (ng/mL)
The reply should be a number in ng/mL, with the unit left off.

Q) Consider the compound shown here: Nc1ncccc1-c1cc(Cc2ccc(COc3ccccn3)cc2)no1 [MGX, manogepix] What is its recorded Cmax?
A) 13900

###

- measurement_notes: Plasma pharmacokinetics of MGX and FMGX (noncompartmental analysis), phase 1 fixed-sequence DDI study with itraconazole or rifampin
- Format: in vivo, human
- measurement_setup: human, in vivo, iv, 500 mg, FMGX only 500 mg BID IV, D1; Cohort 1, n = 16; read-out: MGX AUC(0-inf), least squares geometric mean
assay_metric: AUC(0-inf) (µg·h/mL)
Give your result in µg·h/mL as a bare value.

Q) What AUC(0-inf) value was documented for this compound, Nc1ncccc1-c1cc(Cc2ccc(COc3ccccn3)cc2)no1 [MGX, manogepix] ?
A) 460

###

- measurement_notes: Plasma pharmacokinetics of MGX and FMGX (noncompartmental analysis), phase 1 fixed-sequence DDI study with itraconazole or rifampin
- Type: in vivo, human
- measurement_setup: human, in vivo, iv, 500 mg, FMGX only 500 mg BID IV, D1; Cohort 1, n = 16; geometric mean (geometric %CV); read-out: MGX AUC(0-t)
assay_metric: AUC(0-t) (µg·h/mL)
Return type: number; implicit unit µg·h/mL.

Q) Could you share which AUC(0-t) value was measured for Nc1ncccc1-c1cc(Cc2ccc(COc3ccccn3)cc2)no1 [MGX, manogepix] ?
A) 429

###

- measurement_notes: Plasma pharmacokinetics of MGX and FMGX (noncompartmental analysis), phase 1 fixed-sequence DDI study with itraconazole or rifampin
- Type: in vivo, human
- measurement_setup: human, in vivo, iv, 500 mg, FMGX only 500 mg BID IV, D1; Cohort 1, n = 16; geometric mean (geometric %CV); read-out: MGX Vz
assay_metric: Vd (L)
Lab book: enter the figure in L, no units written.

Q) Need Vd, item Nc1ncccc1-c1cc(Cc2ccc(COc3ccccn3)cc2)no1 [MGX, manogepix]
A) 185

###

- measurement_notes: Plasma pharmacokinetics of MGX and FMGX (noncompartmental analysis), phase 1 fixed-sequence DDI study with itraconazole or rifampin
- Type: in vivo, human
- measurement_setup: human, in vivo, FMGX 1,000 mg BID IV D24 + RIF 600 mg QD PO D15–33; Cohort 2, n = 17; read-out: MGX AUC(0-inf), least squares geometric mean
assay_metric: AUC(0-inf) (µg·h/mL)
Please state the figure in µg·h/mL; there is no need to write the unit.

Q) Reported AUC(0-inf), compound Nc1ncccc1-c1cc(Cc2ccc(COc3ccccn3)cc2)no1 [MGX, manogepix] : ____
A) 450

###

- measurement_notes: Plasma pharmacokinetics of MGX and FMGX (noncompartmental analysis), phase 1 fixed-sequence DDI study with itraconazole or rifampin
- Format: in vivo, human
- measurement_setup: human, in vivo, FMGX 500 mg BID IV D18 + ITR 200 mg QD PO D15–30; Cohort 1, n = 16; read-out: MGX AUC(0-t), least squares geometric mean
assay_metric: AUC(0-t)
Param answer (str): number followed by unit.

Q) Which AUC(0-t) reading was recorded for the molecule Nc1ncccc1-c1cc(Cc2ccc(COc3ccccn3)cc2)no1 [MGX, manogepix] ?
A) 421 µg·h/mL

###

- measurement_notes: Plasma pharmacokinetics of MGX and FMGX (noncompartmental analysis), phase 1 fixed-sequence DDI study with itraconazole or rifampin
- Type: in vivo, human
- measurement_setup: human, in vivo, iv, 1000 mg, FMGX only 1,000 mg BID IV, D1; Cohort 2, n = 17; read-out: MGX AUC(0-inf), least squares geometric mean
assay_metric: AUC(0-inf) (µg·h/mL)
Reply with just the number (in µg·h/mL).

Q) Query (molecule): Nc1ncccc1-c1cc(Cc2ccc(COc3ccccn3)cc2)no1 [MGX, manogepix] ; field requested: AUC(0-inf)
A) 822

###

- measurement_notes: clinical
- Assay type: in vivo, human
- measurement_setup: human, in vivo, iv, 1000 mg, MGX t1/2
assay_metric: half-life (h)
The figure you give is taken to be in h; do not add the unit.

Q) Recorded half-life of Nc1ncccc1-c1cc(Cc2ccc(COc3ccccn3)cc2)no1 [MGX, manogepix] , please.
A) 70.7

###

- measurement_notes: Plasma pharmacokinetics of MGX and FMGX (noncompartmental analysis), phase 1 fixed-sequence DDI study with itraconazole or rifampin
- Format: in vivo, human
- measurement_setup: human, in vivo, FMGX 500 mg BID IV D18 + ITR 200 mg QD PO D15-30; Cohort 1, n = 16; geometric mean (geometric %CV); read-out: MGX AUC(0-t)
assay_metric: AUC(0-t)

Q) What measured AUC(0-t) goes with Nc1ncccc1-c1cc(Cc2ccc(COc3ccccn3)cc2)no1 [MGX, manogepix] ?
A) 421 µg·h/mL

FYI, the data here is from paper PMC11620482.
